# Tested on: RAW264.7
# ASSAY_TEXT: Cytotoxicity against mouse RAW264.7 cells upto 20 uM incubated for 24 hrs by CCK-8 assay
# Format: toxicity, cell-based
# EXPERIMENTAL_PARAMETERS: raw264.7, 24 h
QUANTITY_NAME: Activity

Recorded Activity for COc1cc(C[C@H](C(=O)NC2CC(F)(F)C2)[C@@H](Cc2cc(OC)c(O)c(OC)c2)C(=O)NC2CC(F)(F)C2)cc(OC)c1O , please?
Non-Toxic

Please give the measured Activity for this molecule: COc1cc(C[C@H](C(=O)N2CCN(c3cccc(Cl)c3)CC2)[C@@H](Cc2cc(OC)c(O)c(OC)c2)C(=O)N2CCN(c3cccc(Cl)c3)CC2)cc(OC)c1O
Non-Toxic

Name the recorded Activity for COc1cc(C[C@H](C(=O)N2CCN(c3cccc(C(F)(F)F)c3)CC2)[C@@H](Cc2cc(OC)c(O)c(OC)c2)C(=O)N2CCN(c3cccc(C(F)(F)F)c3)CC2)cc(OC)c1O .
Non-Toxic

---

# Test system: RAW264.7
# ASSAY_TEXT: Cytotoxicity against mouse RAW264.7 cells upto 20 uM incubated for 24 hrs by CCK-8 assay
# Type: toxicity, cell-based
# EXPERIMENTAL_PARAMETERS: raw264.7, 24 h
QUANTITY_NAME: Activity

Reported Activity for COc1ccccc1N1CCN(C(=O)[C@@H](Cc2cc(OC)c(O)c(OC)c2)[C@@H](Cc2cc(OC)c(O)c(OC)c2)C(=O)N2CCN(c3ccccc3OC)CC2)CC1 : what is it?
Non-Toxic

// Activity lookup, key: COc1cc(C[C@H](C(=O)N2CCN(c3ccc(Cl)cc3)CC2)[C@@H](Cc2cc(OC)c(O)c(OC)c2)C(=O)N2CCN(c3ccc(Cl)cc3)CC2)cc(OC)c1O
Non-Toxic

Return reported Activity; argument: COc1cc(C[C@H](C(=O)NC2CCCCC2)[C@@H](Cc2cc(OC)c(O)c(OC)c2)C(=O)NC2CCCCC2)cc(OC)c1O
Non-Toxic

---

# System: RAW264.7
# ASSAY_TEXT: Cytotoxicity against mouse RAW264.7 cells upto 20 uM incubated for 24 hrs by CCK-8 assay
# Format: toxicity, cell-based
# EXPERIMENTAL_PARAMETERS: raw264.7, 24 h
QUANTITY_NAME: Activity

What Activity appears in the records for this compound with RAW264.7? COc1cc(C[C@H](C(=O)N2CCN(c3cccc(C)c3C)CC2)[C@@H](Cc2cc(OC)c(O)c(OC)c2)C(=O)N2CCN(c3cccc(C)c3C)CC2)cc(OC)c1O
Non-Toxic

Give RAW264.7 Activity for CNC(=O)[C@@H](Cc1cc(OC)c(O)c(OC)c1)[C@@H](Cc1cc(OC)c(O)c(OC)c1)C(=O)NC
Non-Toxic

Tell me reported Activity for COc1cc(C[C@H](C(=O)N2CCN(C)CC2)[C@@H](Cc2cc(OC)c(O)c(OC)c2)C(=O)N2CCN(C)CC2)cc(OC)c1O , tested with RAW264.7.
Non-Toxic

# returns recorded Activity (system: RAW264.7) for COc1cc(C[C@H](C(=O)N2CCN(c3cccc(F)c3)CC2)[C@@H](Cc2cc(OC)c(O)c(OC)c2)C(=O)N2CCN(c3cccc(F)c3)CC2)cc(OC)c1O
Non-Toxic

---

# Test system: RAW264.7
# ASSAY_TEXT: Cytotoxicity against mouse RAW264.7 cells upto 20 uM incubated for 24 hrs by CCK-8 assay
# Type: toxicity, cell-based
# EXPERIMENTAL_PARAMETERS: raw264.7, 24 h
QUANTITY_NAME: Activity

Quick one: Activity of COc1cc(C[C@H](C(=O)NCC2CCC2)[C@@H](Cc2cc(OC)c(O)c(OC)c2)C(=O)NCC2CCC2)cc(OC)c1O ?
Non-Toxic

What value of Activity has been recorded for this entry: COc1cc(C[C@H](C(=O)N2CCN(c3cccc(Cl)c3Cl)CC2)[C@@H](Cc2cc(OC)c(O)c(OC)c2)C(=O)N2CCN(c3cccc(Cl)c3Cl)CC2)cc(OC)c1O
Non-Toxic

Can you look up the measured Activity of COc1cc(C[C@H](C(=O)N2CCN(c3ccc(F)cc3)CC2)[C@@H](Cc2cc(OC)c(O)c(OC)c2)C(=O)N2CCN(c3ccc(F)cc3)CC2)cc(OC)c1O for me?
Non-Toxic
